Target: PI3K (p110α/p65α) (Homo sapiens (Human))
Assay: Lipid kinase selectivity panel (Reaction Biology)
Type: biochemical
Settings: 1 μM compound, single dose duplicates, 10 μM ATP; read-out: Percent inhibition relative to DMSO control, PI3K (p110α/p65α)
QUANTITY_MEASURED: inhibition at 1 µM (%)

Field: example entries. Status: answers known.
COC(=O)Nc1cc(-c2cc(-c3cccnc3C(F)(F)F)[nH]c(=O)c2)c(N)cn1; -12
O=C(Nc1cc(-c2cc(N3CCCC[C@@H]3C(F)(F)F)[nH]c(=O)c2)c(Cl)cn1)C1CC1; -24

[P] Cc1cnc(NC(=O)OC2CC3(CNC3)C2)cc1-c1cc(N2CCCC[C@@H]2C(F)(F)F)[nH]c(=O)c1
[Q] CNCC(=O)Nc1cc(-c2cc(N3CCCC[C@@H]3C(F)(F)F)[nH]c(=O)c2)c(C)cn1
Which numeric inhibition at 1 µM is bigger, that of P or that of Q ? Your answer should be the label attached to the chosen record.
P

----------
Target: UniProt Q8NEB9
Sequence (Q8NEB9 other isoform, or with tags, fused parts or gaps): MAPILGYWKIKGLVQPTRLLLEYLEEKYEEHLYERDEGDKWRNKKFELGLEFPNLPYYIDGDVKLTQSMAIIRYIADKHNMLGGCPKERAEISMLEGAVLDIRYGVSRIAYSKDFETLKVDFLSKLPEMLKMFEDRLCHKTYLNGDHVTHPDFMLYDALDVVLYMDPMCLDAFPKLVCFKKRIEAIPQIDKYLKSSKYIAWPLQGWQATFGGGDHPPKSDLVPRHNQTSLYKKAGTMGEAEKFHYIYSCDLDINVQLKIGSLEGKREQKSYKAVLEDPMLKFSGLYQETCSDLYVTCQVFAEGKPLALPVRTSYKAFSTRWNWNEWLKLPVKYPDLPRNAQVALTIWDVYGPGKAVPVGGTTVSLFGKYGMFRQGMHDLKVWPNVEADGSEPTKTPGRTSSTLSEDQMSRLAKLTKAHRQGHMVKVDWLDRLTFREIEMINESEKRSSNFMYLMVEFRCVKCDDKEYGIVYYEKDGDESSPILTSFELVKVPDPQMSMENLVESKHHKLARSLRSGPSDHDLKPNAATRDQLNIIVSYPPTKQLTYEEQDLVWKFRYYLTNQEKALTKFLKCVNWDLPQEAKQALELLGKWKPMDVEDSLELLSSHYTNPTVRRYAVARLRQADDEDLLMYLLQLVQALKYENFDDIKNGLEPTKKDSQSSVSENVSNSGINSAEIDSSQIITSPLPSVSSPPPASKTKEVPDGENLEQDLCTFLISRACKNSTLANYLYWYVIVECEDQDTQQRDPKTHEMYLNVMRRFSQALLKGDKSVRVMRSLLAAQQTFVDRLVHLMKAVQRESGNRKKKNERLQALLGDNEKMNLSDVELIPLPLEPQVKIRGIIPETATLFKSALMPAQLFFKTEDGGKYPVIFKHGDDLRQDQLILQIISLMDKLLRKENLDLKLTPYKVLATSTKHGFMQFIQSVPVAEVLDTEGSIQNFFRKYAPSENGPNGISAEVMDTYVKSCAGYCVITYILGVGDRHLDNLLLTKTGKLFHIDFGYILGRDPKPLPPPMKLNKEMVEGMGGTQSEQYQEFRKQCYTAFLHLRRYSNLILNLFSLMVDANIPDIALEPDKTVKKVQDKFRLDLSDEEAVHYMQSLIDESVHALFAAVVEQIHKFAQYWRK
QUANTITY_MEASURED: IC50

COC(=O)Nc1cc(-c2cc(-c3cccnc3C3CC3)[nH]c(=O)c2)c(C)cn1; 1000 to 10000 nM
Cc1cnc(NC(=O)C2CC2)cc1-c1cc(-c2cnccc2C(F)(F)F)[nH]c(=O)c1; 100 to 500 nM
Cc1nc(Nc2cc(-c3cc(N4CCCC[C@@H]4C(F)(F)F)[nH]c(=O)c3)c(C)cn2)no1; 1000 to 10000 nM

Recorded IC50 for Cc1cnc(NC(=O)C2CC2)cc1-c1cc(N2CCN(S(=O)(=O)c3cnn(C)c3)C[C@@H]2C)[nH]c(=O)c1 with UniProt Q8NEB9, please?
≤ 100 nM

----------
Biological target: PI3Kd (p110δ/p85α) (Homo sapiens (Human), UniProt O00329)
Sequence (O00329 whole entry, species assumed): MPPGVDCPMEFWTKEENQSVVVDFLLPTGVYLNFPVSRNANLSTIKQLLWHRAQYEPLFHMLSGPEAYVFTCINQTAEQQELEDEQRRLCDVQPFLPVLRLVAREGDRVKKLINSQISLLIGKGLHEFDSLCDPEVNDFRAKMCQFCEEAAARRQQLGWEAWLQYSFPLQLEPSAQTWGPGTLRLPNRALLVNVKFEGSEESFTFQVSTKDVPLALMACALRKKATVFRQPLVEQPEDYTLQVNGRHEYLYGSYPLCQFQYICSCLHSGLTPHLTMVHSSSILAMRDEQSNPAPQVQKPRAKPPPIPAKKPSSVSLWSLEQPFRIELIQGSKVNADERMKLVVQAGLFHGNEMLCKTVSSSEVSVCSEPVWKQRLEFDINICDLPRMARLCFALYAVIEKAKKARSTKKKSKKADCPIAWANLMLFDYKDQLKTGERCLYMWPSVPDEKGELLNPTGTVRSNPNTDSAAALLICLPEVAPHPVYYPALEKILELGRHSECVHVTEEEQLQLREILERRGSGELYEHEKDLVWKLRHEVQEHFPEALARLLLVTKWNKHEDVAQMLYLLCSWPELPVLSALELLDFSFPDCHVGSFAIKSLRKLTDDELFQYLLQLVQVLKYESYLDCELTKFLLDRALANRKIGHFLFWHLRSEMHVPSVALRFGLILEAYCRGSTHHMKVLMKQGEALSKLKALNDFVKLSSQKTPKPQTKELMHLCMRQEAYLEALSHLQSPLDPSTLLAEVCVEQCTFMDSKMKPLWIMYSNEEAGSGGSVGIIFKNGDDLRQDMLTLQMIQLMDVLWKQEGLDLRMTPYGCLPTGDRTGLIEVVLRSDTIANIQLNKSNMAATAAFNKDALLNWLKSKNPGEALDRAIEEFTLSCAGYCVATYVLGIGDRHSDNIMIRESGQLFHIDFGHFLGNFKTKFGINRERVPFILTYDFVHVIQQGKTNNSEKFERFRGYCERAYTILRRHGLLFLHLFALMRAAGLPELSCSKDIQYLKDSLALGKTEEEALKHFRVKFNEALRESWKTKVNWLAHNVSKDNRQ
Sequence (P27986 whole entry partner, species assumed): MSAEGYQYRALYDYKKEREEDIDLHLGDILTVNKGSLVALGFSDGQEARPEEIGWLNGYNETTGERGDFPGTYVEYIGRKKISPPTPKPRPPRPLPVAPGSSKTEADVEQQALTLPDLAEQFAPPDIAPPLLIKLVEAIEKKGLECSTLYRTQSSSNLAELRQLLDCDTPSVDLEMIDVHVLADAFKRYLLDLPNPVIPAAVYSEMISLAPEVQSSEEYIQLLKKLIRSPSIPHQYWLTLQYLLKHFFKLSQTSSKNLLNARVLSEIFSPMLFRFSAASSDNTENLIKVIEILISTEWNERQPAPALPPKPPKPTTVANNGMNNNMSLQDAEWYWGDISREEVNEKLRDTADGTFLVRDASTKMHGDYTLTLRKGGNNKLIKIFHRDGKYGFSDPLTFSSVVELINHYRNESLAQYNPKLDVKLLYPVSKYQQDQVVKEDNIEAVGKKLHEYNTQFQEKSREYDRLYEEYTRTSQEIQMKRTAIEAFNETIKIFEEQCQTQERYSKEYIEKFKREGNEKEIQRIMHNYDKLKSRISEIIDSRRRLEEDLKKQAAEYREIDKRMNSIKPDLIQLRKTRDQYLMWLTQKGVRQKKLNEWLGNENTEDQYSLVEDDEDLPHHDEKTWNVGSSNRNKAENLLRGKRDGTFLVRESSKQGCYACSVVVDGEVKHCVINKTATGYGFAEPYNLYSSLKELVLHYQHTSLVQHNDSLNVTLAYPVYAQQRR
Assay: Lipid kinase selectivity panel (Reaction Biology)
Format: biochemical
Settings: 1 μM compound, single dose duplicates, 10 μM ATP; read-out: Percent inhibition relative to DMSO control, PI3Kd (p110δ/p85α)
QUANTITY_MEASURED: inhibition at 1 µM (%)

[I] Cc1cnc(NC(=O)C2CC2)cc1-c1cc(N2CCCC[C@@H]2C(F)(F)F)[nH]c(=O)c1 [Example 17]
[II] O=C(Nc1cc(-c2cc(N3CCCC[C@@H]3C(F)(F)F)[nH]c(=O)c2)c(Cl)cn1)C1CC1 [Example 16]
[III] CNC(=O)Nc1cc(-c2cc(N3CCCC[C@@H]3C(F)(F)F)[nH]c(=O)c2)c(C)cn1 [Example 10]
Put the above entries in order of falling inhibition at 1 µM. Form field (ranking): labels in requested order.
I, III, II
(I: 14%, III: 1%, II: -2%)

----------
Target: UniProtKB O00443
Sequence (O00443 whole entry, species assumed): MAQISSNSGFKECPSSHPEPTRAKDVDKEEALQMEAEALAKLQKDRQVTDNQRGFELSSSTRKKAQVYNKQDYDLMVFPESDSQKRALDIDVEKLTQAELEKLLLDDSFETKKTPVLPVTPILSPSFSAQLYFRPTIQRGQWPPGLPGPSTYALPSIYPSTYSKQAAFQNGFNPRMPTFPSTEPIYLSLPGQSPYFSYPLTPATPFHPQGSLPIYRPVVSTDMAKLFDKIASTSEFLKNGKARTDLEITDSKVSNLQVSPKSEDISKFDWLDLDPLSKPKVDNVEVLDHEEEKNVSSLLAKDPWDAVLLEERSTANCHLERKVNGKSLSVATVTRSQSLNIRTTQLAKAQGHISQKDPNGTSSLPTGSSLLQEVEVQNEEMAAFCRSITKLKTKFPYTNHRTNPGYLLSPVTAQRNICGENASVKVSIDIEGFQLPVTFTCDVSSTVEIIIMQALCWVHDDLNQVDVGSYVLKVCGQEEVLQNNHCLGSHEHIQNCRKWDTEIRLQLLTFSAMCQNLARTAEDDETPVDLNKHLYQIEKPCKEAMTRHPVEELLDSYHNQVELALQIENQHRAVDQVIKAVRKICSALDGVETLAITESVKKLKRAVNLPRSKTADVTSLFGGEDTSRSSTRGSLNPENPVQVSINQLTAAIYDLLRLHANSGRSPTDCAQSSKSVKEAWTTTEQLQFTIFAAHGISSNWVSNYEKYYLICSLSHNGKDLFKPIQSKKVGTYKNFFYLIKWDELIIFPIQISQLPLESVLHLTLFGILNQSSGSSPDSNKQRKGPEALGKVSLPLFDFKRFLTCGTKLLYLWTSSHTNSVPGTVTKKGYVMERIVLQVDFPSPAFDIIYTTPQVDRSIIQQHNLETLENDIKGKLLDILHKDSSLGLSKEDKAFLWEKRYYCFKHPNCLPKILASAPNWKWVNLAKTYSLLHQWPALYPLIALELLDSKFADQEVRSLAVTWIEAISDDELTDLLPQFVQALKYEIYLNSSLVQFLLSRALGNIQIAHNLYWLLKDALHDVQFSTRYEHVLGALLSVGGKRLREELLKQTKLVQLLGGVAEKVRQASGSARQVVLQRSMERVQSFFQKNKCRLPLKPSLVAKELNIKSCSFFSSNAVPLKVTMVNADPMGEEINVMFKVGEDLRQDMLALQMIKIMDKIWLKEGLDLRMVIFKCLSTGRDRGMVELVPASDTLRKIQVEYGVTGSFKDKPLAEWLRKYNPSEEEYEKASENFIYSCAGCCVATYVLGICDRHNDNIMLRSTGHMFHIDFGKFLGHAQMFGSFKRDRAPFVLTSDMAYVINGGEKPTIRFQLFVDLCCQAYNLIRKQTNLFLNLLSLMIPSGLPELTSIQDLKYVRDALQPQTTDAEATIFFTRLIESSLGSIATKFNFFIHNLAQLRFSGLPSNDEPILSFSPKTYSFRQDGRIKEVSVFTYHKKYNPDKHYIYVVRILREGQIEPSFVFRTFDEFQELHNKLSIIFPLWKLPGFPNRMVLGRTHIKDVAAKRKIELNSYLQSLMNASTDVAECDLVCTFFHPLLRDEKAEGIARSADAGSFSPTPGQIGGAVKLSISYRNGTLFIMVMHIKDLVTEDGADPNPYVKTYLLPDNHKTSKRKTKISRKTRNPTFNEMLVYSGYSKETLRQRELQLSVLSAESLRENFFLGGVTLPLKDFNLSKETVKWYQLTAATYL
Test: Lipid kinase selectivity panel (Reaction Biology)
Format: biochemical
Conditions: 1 μM compound, single dose duplicates, 10 μM ATP; read-out: Percent inhibition relative to DMSO control, PI3KC2α
Method: The compounds of the present invention were tested in a standard lipid kinase selectivity panel: 16 other lipid kinases (Reaction Biology, Malvern, PA, USA), under conditions of non-disclosure, non-dissemination, and non-use. In brief, compounds (see Table 2) were tested at in single dose duplicates at 1 μM against lipid kinases, including PI3Kα, PI3Kβ, and PI3Kδ, and reactions were carried out at 10 μM ATP.
QUANTITY_MEASURED: inhibition at 1 µM (%)

Field: example entries. Status: answers known.
CNC(=O)Nc1cc(-c2cc(N3CCCC[C@@H]3C(F)(F)F)[nH]c(=O)c2)c(C)cn1; 0
Cc1nccc(Nc2cc(-c3cc(N4CCCC[C@@H]4C(F)(F)F)[nH]c(=O)c3)c(C)cn2)n1; 2
Cc1nccc(Nc2cc(-c3cc(-c4cccnc4C(F)(F)F)[nH]c(=O)c3)c(C)cn2)n1; 4
CNCC(=O)Nc1cc(-c2cc(N3CCCC[C@@H]3C(F)(F)F)[nH]c(=O)c2)c(C)cn1; 2
COC(=O)Nc1cc(-c2cc(-c3cccnc3C(F)(F)F)[nH]c(=O)c2)c(N)cn1; -26

[a] Cc1cnc(NC(=O)CCN(C)C)cc1-c1cc(N2CCCC[C@@H]2C(F)(F)F)[nH]c(=O)c1
[b] COC(=O)Nc1cc(-c2cc(-c3cccnc3C(F)(F)F)[nH]c(=O)c2)c(C)cn1
Consider entries a and b . Which has the numerically lower inhibition at 1 µM? Your answer should be the label attached to the chosen record.
a
(a: -5%, b: -3%)

----------
Biological target: PI3K (p110α/p65α) (Homo sapiens (Human))
Experiment: Lipid kinase selectivity panel (Reaction Biology)
Assay type: biochemical
Conditions: 1 μM compound, single dose duplicates, 10 μM ATP; read-out: Percent inhibition relative to DMSO control, PI3K (p110α/p65α)
QUANTITY_MEASURED: inhibition at 1 µM (%)

Field: example entries. Status: answers known.
Cc1cnc(NC(=O)CCN2CCCC2)cc1-c1cc(N2CCCC[C@@H]2C(F)(F)F)[nH]c(=O)c1; -4
Cc1nccc(Nc2cc(-c3cc(N4CCCC[C@@H]4C(F)(F)F)[nH]c(=O)c3)c(C)cn2)n1; 24
COC(=O)Nc1ncc(C)c(-c2cc(-c3cccnc3C(F)(F)F)[nH]c(=O)c2)n1; -26
Cc1cnc(NC(=O)CC2CNC2)cc1-c1cc(N2CCCC[C@@H]2C(F)(F)F)[nH]c(=O)c1; 7

[P] COC(=O)Nc1cc(-c2cc(N3CCCC[C@@H]3C(F)(F)F)[nH]c(=O)c2)c(C)cn1
[Q] CNC(=O)Nc1cc(-c2cc(N3CCCC[C@@H]3C(F)(F)F)[nH]c(=O)c2)c(C)cn1
[R] Cc1nccc(Nc2cc(-c3cc(-c4cccnc4C(F)(F)F)[nH]c(=O)c3)c(C)cn2)n1
Could you please sort these 3 entries by inhibition at 1 µM from high to low? Form field (ranking): labels in requested order.
R, P, Q
(R: 19%, P: 5%, Q: -23%)

----------
Biological target: PI3Kd (p110δ/p85α) (Homo sapiens (Human), UniProt O00329)
Assay: Lipid kinase selectivity panel (Reaction Biology)
Assay type: biochemical
Conditions: 1 μM compound, single dose duplicates, 10 μM ATP; read-out: Percent inhibition relative to DMSO control, PI3Kd (p110δ/p85α)
QUANTITY_MEASURED: inhibition at 1 µM (%)

Field: example entries. Status: answers known.
COC(=O)Nc1cc(-c2cc(N3CCCC[C@@H]3C)[nH]c(=O)c2)c(C)cn1 [Example 20]; -4
Cc1nccc(Nc2cc(-c3cc(-c4cccnc4C(F)(F)F)[nH]c(=O)c3)c(C)cn2)n1 [Example 38]; 52
COC(=O)Nc1cc(-c2cc(-c3cccnc3C(F)(F)F)[nH]c(=O)c2)c(F)cn1 [Example 5]; 58
Cc1cnc(NC(=O)CC2CNC2)cc1-c1cc(N2CCCC[C@@H]2C(F)(F)F)[nH]c(=O)c1 [Example 27]; 2

[P] COC(=O)Nc1cc(-c2cc(N3CCCC[C@@H]3C(F)(F)F)[nH]c(=O)c2)c(N)cn1 [Example 14]
[Q] Cc1cnc(NC(=O)CCN(C)C)cc1-c1cc(N2CCCC[C@@H]2C(F)(F)F)[nH]c(=O)c1 [Example 25]
[R] COC(=O)Nc1cc(-c2cc(-c3cccnc3C(F)(F)F)[nH]c(=O)c2)c(C)cn1 [Example 78]
[S] Cc1cnc(NC(=O)CC2CNCC2(F)F)cc1-c1cc(N2CCCC[C@@H]2C(F)(F)F)[nH]c(=O)c1 (stereo partly shown) [Example 22]
Could you please sort these 4 entries by inhibition at 1 µM from high to low? Form field (ranking): labels in requested order.
R, S, P, Q
(R: 10%, S: 4%, P: -2%, Q: -7%)

[a] Cc1cnc(NC(=O)CCN2CCCC2)cc1-c1cc(N2CCCC[C@@H]2C(F)(F)F)[nH]c(=O)c1 [Example 26]
[b] COC(=O)Nc1ncc(C)c(-c2cc(-c3cccnc3C(F)(F)F)[nH]c(=O)c2)n1 [Example 6]
[c] COC(=O)Nc1cc(-c2cc(N3CCCC[C@@H]3C(F)(F)F)[nH]c(=O)c2)c(CF)cn1 [Example 18]
[d] Cc1cnc(NC(=O)OC2CC3(CNC3)C2)cc1-c1cc(N2CCCC[C@@H]2C(F)(F)F)[nH]c(=O)c1 [Example 28]
Could you please sort these 4 entries by inhibition at 1 µM from high to low? Form field (ranking): labels in requested order.
c, d, b, a
(c: 13%, d: 6%, b: -2%, a: -5%)

[I] COC(=O)Nc1cc(-c2cc(-c3cccnc3C(F)(F)F)[nH]c(=O)c2)c(N)cn1 [Example 15]
[II] CNCC(=O)Nc1cc(-c2cc(N3CCCC[C@@H]3C(F)(F)F)[nH]c(=O)c2)c(C)cn1 [Example 24]
Consider entries I and II . Which has the numerically lower inhibition at 1 µM? Your answer should be the label attached to the chosen record.
II

[I] Cc1nccc(Nc2cc(-c3cc(N4CCCC[C@@H]4C(F)(F)F)[nH]c(=O)c3)c(C)cn2)n1 [Example 77]
[II] COC(=O)Nc1cc(-c2cc(N3CCCC[C@@H]3C(F)(F)F)[nH]c(=O)c2)c(C)cn1 [Example 1]
Which numeric inhibition at 1 µM is bigger, that of I or that of II ? Your answer should be the label attached to the chosen record.
I
